Reference for the values: ChEMBL document CHEMBL5442219

molecular target: Sodium-dependent noradrenaline transporter (Homo sapiens); details: Compound concentration 10 µM; call rule not given here
Classes used: T = active, F = inactive

• CCc1nn(CCCN2CCN(c3cccc(Cl)c3)CC2)c(=O)n1CCOc1ccccc1 = T
• C[C@@H](NCCCc1cccc(C(F)(F)F)c1)c1cccc2ccccc12 = T
• Cc1csc2c(N[C@@H](C)CN3CCN(S(=O)(=O)c4ccc(Cl)c(Cl)c4)CC3)ncnc12 = F
• Cc1cn2cc(CC(=O)N3CCC4(CC3)CN(Cc3ccc(-n5nccn5)cc3Cl)C4)nc2s1 = F
• CN1CC(=O)N=C1NC(=O)Nc1cccc(Cl)c1 = F
• O=C(O)c1cc(-c2ccc(C3CCNCC3)cc2)c2ccc(-c3ccc(C(F)(F)F)cc3)cc2c1 = T
• COc1ccc(NS(=O)(=O)c2sc3ccc(Cl)cc3c2C)cc1N1CCNCC1 = T
• COC(=O)[C@H]1[C@H]2C[C@H]3c4[nH]c5ccccc5c4CCN3C[C@H]2CC[C@@H]1O = F
• COc1ccc(S(=O)(=O)N2c3ccc(Cl)cc3[C@](O)(c3ccccc3Cl)[C@@H]2C(=O)N2CCC[C@H]2C(N)=O)cc1OC = F
• CCCCCNC(=O)NS(=O)(=O)c1cc([N+](=O)[O-])ccc1NC1CCCCC1 = T
• N[C@H](C(=O)O)c1ccc(C(=O)O)c(C(=O)O)c1 = T
• O=S1(=O)c2cccc3cccc(c23)N1CCCN1CCN(c2ccc(F)cc2)CC1 = T
• COc1ccc(S(=O)(=O)c2cc(OC)ccc2S(=O)(=O)c2ccc([C@H](C)NS(C)(=O)=O)cc2)cc1 = F
• CC(C)(N)C(=O)N[C@H](COCc1ccccc1)C(=O)N1CCC2(CC1)CN(S(C)(=O)=O)c1ccccc12 = F
• OC1(c2ccc(Cl)cc2)CCN(Cc2c[nH]c3ccccc23)CC1 = T
• COc1ccc2cc(S(=O)(=O)N[C@H](CC(=O)N[C@H](Cc3ccc(CN4[C@H](C)CCC[C@@H]4C)cc3)C(=O)N(C)C(C)C)c3ccc4c(c3)OCO4)ccc2c1 = F
• CC[C@@H]1CN2C(=O)N(C)c3nc(-c4ccccc4)[nH]c3C2=N1 = F
• CN(C)S(=O)(=O)c1ccc(NC(=S)N2CCC(C(O)(c3ccccc3)c3ccccc3)CC2)cc1 = F
• C[C@@H](NCCc1ccc(O)cc1)[C@@H](O)c1ccc(O)cc1 (relative stereo) = T
• COc1ccc(CNC(=O)c2cc(-c3cncc(Cl)c3)cnc2-c2ccccn2)nc1OC = F
• OCc1cc(C(O)CNCCCCCCOCCCCc2ccccc2)ccc1O (stereo unspecified) = T
• Cc1cc(C)cc(-c2cnc3cc(Cl)c(-c4cccc(O)c4)cc3c2OCCCN)c1 = T
• NCCc1c[nH]c2ccc(C(N)=O)cc12 = T
• CN1CCCC(n2nc(Cc3ccc(Cl)cc3)c3ccccc3c2=O)CC1 (stereo unspecified) = F
• Oc1ccc2c3c1O[C@H]1c4[nH]c5c(c4C[C@@]4(O)[C@@H](C2)N(CC2CC2)CC[C@]314)C[C@@]1(O)[C@H]2Cc3ccc(O)c4c3[C@@]1(CCN2CC1CC1)[C@H]5O4 = F
• COc1ccccc1N1CCN(CCCCNC(=O)c2ccc3ccccc3c2)CC1 = T
• COc1cccc([C@@H](C)NCCCc2ccccc2Cl)c1 = T
• CCCn1c(=O)c2[nH]c(-c3cnn(Cc4cccc(C(F)(F)F)c4)c3)nc2n(CC)c1=O = F
• OC[C@H]1O[C@@H](n2cnc3c(NC4CCCC4)ncnc32)[C@H](O)[C@@H]1O = F
• Cc1cccc(NC(=O)N[C@@H]2N=C(c3ccccc3)c3ccccc3N(C)C2=O)c1 = F
• COc1cc(-n2cnc3cc(-c4ccc(Cl)cc4)sc3c2=O)ccc1OCCN1CCCC1 = T
